Tested Target: Gal(a1-4)Gal(b1-4)GlcNAc
Method Notes: glycan array binding signal (z-score within array); higher = stronger binding
Condition Summary: glycan notation: IUPAC condensed, linker removed
Many of the other results were omitted from the sample, so the strongest signals are more common in it than they were.
Binary call on glycan array binding signal (z-score): true (1) from -0.3 upward, false (0) beneath that.

HHL-1 (Homo sapiens), P07306 (protein) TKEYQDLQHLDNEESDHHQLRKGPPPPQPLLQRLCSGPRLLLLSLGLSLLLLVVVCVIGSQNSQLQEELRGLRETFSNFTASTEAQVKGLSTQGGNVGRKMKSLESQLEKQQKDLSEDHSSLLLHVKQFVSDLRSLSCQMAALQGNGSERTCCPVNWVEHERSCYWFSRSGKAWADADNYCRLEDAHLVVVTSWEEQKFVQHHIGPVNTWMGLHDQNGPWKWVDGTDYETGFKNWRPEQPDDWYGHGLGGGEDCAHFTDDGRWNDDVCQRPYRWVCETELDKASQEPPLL; false (0)
FGF1 (Homo sapiens), P05230 (protein) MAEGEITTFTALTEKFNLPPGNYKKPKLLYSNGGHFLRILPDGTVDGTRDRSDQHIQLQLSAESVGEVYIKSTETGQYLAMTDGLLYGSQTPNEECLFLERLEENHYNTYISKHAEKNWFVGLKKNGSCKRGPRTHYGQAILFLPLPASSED; true (1)
IRP60A (Homo sapiens), Q9UGN4 (protein) MWLPWALLLLWVPGCFALSKCRTVAGPVGGSLSVQCPYEKEHRTLNKYWCRPPQIFLCDKIVETKGSAGKRNGRVSIRDSPANLSFTVTLENLTEEDAGTYWCGVDTPWLRDFHDPVVEVEVSVFPASTSMTPASITAAKTSTITTAFPPVSSTTLFAVGATHSASIQEETEEVVNSQLPLLLSLLALLLLLLVGASLLAWRMFQKWIKAGDHSELSQNPKQAATQSELHYANLELLMWPLQEKPAPPREVEVEYSTVASPREELHYASVVFDSNTNRIAAQRPREEEPDSDYSVIRKT; true (1)
SEX4 (Arabidopsis thaliana), Q944A8 (protein) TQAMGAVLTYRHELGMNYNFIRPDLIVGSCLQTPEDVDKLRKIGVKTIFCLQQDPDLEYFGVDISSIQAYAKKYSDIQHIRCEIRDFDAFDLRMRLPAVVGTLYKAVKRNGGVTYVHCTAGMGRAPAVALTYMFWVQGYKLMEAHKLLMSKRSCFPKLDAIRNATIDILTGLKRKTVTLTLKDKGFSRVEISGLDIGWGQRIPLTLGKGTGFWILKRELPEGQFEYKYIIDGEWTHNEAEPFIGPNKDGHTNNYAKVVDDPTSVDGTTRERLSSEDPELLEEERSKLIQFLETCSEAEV; false (0)
CGL3 (Coprinopsis cinerea) (protein) MGHHHHHHHHSGFHILRLESTVDLSEPLKDNGIIVFQSDKLDLEPSPNLGPTGIDNTNVNLINAKGDVLLHIGIRRRENAFVFNSIPYGESRGPEERIPLEGTFGDRRDPSITVFDHPDRYQIMIDYKTVYYYKKRLEGRCEKVSYKINEGQTPPFSDVLGVTVLYFANVMPRAN; true (1)
Gal 7 (Homo sapiens) (protein) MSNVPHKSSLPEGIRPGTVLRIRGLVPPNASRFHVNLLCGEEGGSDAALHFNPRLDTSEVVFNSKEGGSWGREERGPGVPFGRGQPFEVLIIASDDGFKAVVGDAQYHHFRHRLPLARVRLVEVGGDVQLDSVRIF; true (1)

INPUT: Please indicate if the recorded glycan array binding signal (z-score) for UDA (Urtica dioica), P11218 (protein) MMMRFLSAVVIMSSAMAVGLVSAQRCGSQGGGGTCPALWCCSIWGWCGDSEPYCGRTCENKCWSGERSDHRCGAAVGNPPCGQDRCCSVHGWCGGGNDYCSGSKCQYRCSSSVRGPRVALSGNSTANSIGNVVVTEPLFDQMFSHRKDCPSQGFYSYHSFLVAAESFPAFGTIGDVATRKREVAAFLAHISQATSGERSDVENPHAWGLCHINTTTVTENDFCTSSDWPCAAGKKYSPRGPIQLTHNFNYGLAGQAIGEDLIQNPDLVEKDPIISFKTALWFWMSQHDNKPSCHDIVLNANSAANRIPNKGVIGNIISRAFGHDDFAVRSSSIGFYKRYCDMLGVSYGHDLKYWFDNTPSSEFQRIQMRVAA meets or exceeds -0.3.
OUTPUT: true (1)

INPUT: Hi team, for Langerin K299A/K313A (Homo sapiens), Q9UJ71 (protein) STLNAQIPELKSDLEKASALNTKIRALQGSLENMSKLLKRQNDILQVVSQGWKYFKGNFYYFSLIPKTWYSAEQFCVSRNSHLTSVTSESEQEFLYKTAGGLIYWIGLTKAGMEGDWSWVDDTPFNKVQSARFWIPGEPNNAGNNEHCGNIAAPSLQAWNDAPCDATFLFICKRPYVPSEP , is the recorded glycan array binding signal (z-score) at or above -0.3?
OUTPUT: true (1)

Provenance of the data: the supplement of paper PMC8728848
